pIC50: −log10 of the molar value.
Listed below are compounds with pIC50 for RON (Homo sapiens, UniProt Q04912), each taken from published literature.

Worked cases, answers included:
> print(dat)
                                   compound  parameter        result
1  CC(C(=O)N1CCCCC1)n1cc(-c2cnc(N)c(-c3nc4ccccc4s3)c2)cn1 (centres unmarked)      pIC50  4.70 to 6.00
2  O=C1NCc2c(Oc3ccc(NC(=O)c4cccn(-c5ccc(F)cc5)c4=O)cc3F)ccnc2N1      pIC50        > 8.00
3  O=C1NCc2c(Oc3ccc(NC(=O)c4cc(Cl)cnc4Cl)cc3F)ccnc2N1      pIC50  7.00 to 8.00
4  CC(Oc1cc2[nH]c(NC(=O)NCCN3CCOCC3)nc2cc1F)c1c(Cl)cccc1Cl (centres unmarked)      pIC50        > 6.30
5  CN1CCC(N(C)C(=O)c2cccc(-c3cnc(N)c(-c4nc5ccccc5s4)c3)c2)CC1      pIC50  4.70 to 6.00
6  CC(Oc1cc2sc(NC(=O)NCCOCc3ccccc3)nc2cc1F)c1c(Cl)ccc(F)c1Cl (centres unmarked)      pIC50  5.00 to 6.30
7  NC(=O)CCn1cc(-c2cnc(N)c(-c3nc4ccccc4s3)c2)cn1      pIC50  4.70 to 6.00

Then there is this compound:
[ask] Consider the compound C[C@@H](Oc1c(N)ncc2c1ccn2S(=O)(=O)c1ccccc1)c1c(Cl)ccc(F)c1Cl and give its measured pIC50.
[reply] < 4.70
